- Test system: SK-MES-1
- assaySummary: relative viability (nuclei count vs DMSO), 5 days (fraction); higher = more cells survive
- setupConditions: first compound 0.08 µM
The following molecules are listed with their measured relative viability values.
The answer should be written as a number, with no unit following it.

COc1nc(C)cnc1NS(=O)(=O)c1cccnc1-c1ccc(-c2nnco2)cc1 [Zibotentan] + COc1cc2c(Oc3ccc(NC(=O)C4(C(=O)Nc5ccc(F)cc5)CC4)cc3F)ccnc2cc1OCCCN1CCOCC1 [Foretinib] (partner 0.25 µM)    0.974
O=c1cc(-c2cccc3c2Sc2ccccc2S3)oc(N2CCOCC2)c1 + Cc1nc(NC(=O)N2CCC[C@H]2C(N)=O)sc1-c1ccnc(C(C)(C)C(F)(F)F)c1 [Alpelisib] (partner 2 µM)    0.864

Moving on to another molecule below.
The reported value for O=c1cc(-c2cccc3c2Sc2ccccc2S3)oc(N2CCOCC2)c1 + CS(=O)(=O)N1CCN(Cc2cc3nc(-c4cccc5[nH]ncc45)nc(N4CCOCC4)c3s2)CC1 [Pictilisib] (partner 1 µM) in terms of relative viability is 0.373

====

The following molecules are listed with their measured relative viability values.
- Tested on: NCI-H1666
- assaySummary: relative viability (nuclei count vs DMSO), 5 days (fraction); higher = more cells survive
- setupConditions: first compound 0.3162 µM

Recorded results for 4 molecules are shown here.
O=c1cc(N2CCOCC2)oc2c(-c3cccc4c3sc3ccccc34)cccc12 + CCNC(=O)c1noc(-c2cc(C(C)C)c(O)cc2O)c1-c1ccc(CN2CCOCC2)cc1 [Luminespib] (partner 0.01 µM)    0.969
CCN(CC)CCCCNc1ncc2cc(-c3cc(OC)cc(OC)c3)c(NC(=O)NC(C)(C)C)nc2n1 + Cc1nc(NC(=O)N2CCC[C@H]2C(N)=O)sc1-c1ccnc(C(C)(C)C(F)(F)F)c1 [Alpelisib] (partner 2 µM)    0.995
CCN(CC)CCCCNc1ncc2cc(-c3cc(OC)cc(OC)c3)c(NC(=O)NC(C)(C)C)nc2n1 + N=C(N)NC(=N)NCCc1ccccc1 [Phenformin] (partner 250 µM)    0.644
O=c1cc(N2CCOCC2)oc2c(-c3cccc4c3sc3ccccc34)cccc12 + CC(=O)c1c(C)c2cnc(Nc3ccc(N4CCNCC4)cn3)nc2n(C2CCCC2)c1=O [Palbociclib] (partner 0.5 µM)    0.651

Moving on to another molecule below.
The reported value for O=c1cc(N2CCOCC2)oc2c(-c3cccc4c3sc3ccccc34)cccc12 + C[C@]1(O)C[C@@H](c2nc(-c3ccc4ccc(-c5ccccc5)nc4c3)c3c(N)nccn32)C1 [Linsitinib] (partner 1 µM) in terms of relative viability is 0.776

====

- Test system: A-427
- assaySummary: relative viability (nuclei count vs DMSO), 5 days (fraction); higher = more cells survive
- setupConditions: first compound 0.3162 µM
Threshold 0.8: relative viability strictly smaller gives Fulfilled, otherwise Not fulfilled.

CCN(CC)CCCCNc1ncc2cc(-c3cc(OC)cc(OC)c3)c(NC(=O)NC(C)(C)C)nc2n1 + CCNC(=O)c1noc(-c2cc(C(C)C)c(O)cc2O)c1-c1ccc(CN2CCOCC2)cc1 [Luminespib] (partner 0.01 µM)    Not fulfilled
O=c1cc(N2CCOCC2)oc2c(-c3cccc4c3sc3ccccc34)cccc12 + Cc1nc(Nc2ncc(C(=O)Nc3c(C)cccc3Cl)s2)cc(N2CCN(CCO)CC2)n1 [Dasatinib] (partner 0.075 µM)    Fulfilled
O=c1cc(N2CCOCC2)oc2c(-c3cccc4c3sc3ccccc34)cccc12 + C[C@]1(O)C[C@@H](c2nc(-c3ccc4ccc(-c5ccccc5)nc4c3)c3c(N)nccn32)C1 [Linsitinib] (partner 1 µM)    Not fulfilled
CCN(CC)CCCCNc1ncc2cc(-c3cc(OC)cc(OC)c3)c(NC(=O)NC(C)(C)C)nc2n1 + Nc1ncn([C@H]2C[C@H](O)[C@@H](CO)O2)c(=O)n1 [Decitabine] (partner 2 µM)    Fulfilled

For O=c1cc(N2CCOCC2)oc2c(-c3cccc4c3sc3ccccc34)cccc12 + CC1(C)CCC(c2ccc(Cl)cc2)=C(CN2CCN(c3ccc(C(=O)NS(=O)(=O)c4ccc(N[C@H](CCN5CCOCC5)CSc5ccccc5)c(S(=O)(=O)C(F)(F)F)c4)cc3)CC2)C1 [Navitoclax] (partner 0.5 µM) , is the recorded relative viability below the cut-off of 0.8?
Not fulfilled
